# test.system: Metabotropic glutamate receptor 4 (Homo sapiens)
# Sequence (Q14833 whole entry): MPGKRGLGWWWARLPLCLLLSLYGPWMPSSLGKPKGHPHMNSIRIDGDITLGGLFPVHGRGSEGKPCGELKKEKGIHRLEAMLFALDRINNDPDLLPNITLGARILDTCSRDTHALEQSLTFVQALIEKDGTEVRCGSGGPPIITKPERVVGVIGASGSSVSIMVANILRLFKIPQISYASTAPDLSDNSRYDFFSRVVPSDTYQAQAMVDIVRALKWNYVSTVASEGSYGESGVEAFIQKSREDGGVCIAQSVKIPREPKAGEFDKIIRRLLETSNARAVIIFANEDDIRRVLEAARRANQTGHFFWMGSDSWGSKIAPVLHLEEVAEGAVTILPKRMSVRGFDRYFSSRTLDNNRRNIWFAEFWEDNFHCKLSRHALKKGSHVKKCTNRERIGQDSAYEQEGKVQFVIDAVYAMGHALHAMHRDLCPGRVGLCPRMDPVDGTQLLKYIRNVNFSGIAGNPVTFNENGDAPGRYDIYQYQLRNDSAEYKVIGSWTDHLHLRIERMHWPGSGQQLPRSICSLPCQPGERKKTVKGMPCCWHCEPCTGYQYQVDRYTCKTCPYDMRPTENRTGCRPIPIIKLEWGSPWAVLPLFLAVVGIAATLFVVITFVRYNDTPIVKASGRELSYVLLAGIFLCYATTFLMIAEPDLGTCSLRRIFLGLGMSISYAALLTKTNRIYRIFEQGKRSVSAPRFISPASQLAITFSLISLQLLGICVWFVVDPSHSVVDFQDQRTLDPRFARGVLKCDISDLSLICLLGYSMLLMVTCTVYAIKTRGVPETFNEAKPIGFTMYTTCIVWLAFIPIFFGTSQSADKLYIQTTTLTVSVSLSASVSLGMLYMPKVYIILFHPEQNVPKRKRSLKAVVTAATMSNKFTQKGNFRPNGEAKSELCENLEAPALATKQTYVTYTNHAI
# protocol: Agonist activity of the compound at Metabotropic Excitatory Amino acid Receptors Expressed in CHO cells. mGlu4a
# Format: functional, cell-based
value.kind: EC50

What measured EC50 goes with Cc1onc(O)c1C[C@H](N)C(=O)O [(S)-AMPA] ?
> 3 mM

---

# test.system: Metabotropic glutamate receptor 6 (Homo sapiens)
# protocol: Agonist activity of the compound at Metabotropic Excitatory Amino acid Receptors Expressed in CHO cells. mGlu6
# Assay type: functional, cell-based
Task for the reader: assign each of the following molecules its reported EC50.

Return reported EC50; argument: Cc1onc(O)c1C[C@@H](N)C(=O)O
> 1000 µM

And the next one, Cc1onc(O)c1C[C@H](N)C(=O)O [(S)-AMPA] ?
220 µM

Same again, this time with Cc1o[nH]c(=O)c1C(N)C(=O)O (stereo not drawn)
> 1000 µM

---

# test.system: Glutamate NMDA receptor
# protocol: Agonistic activity at NMDA receptor of rat brain membrane using [3H]MK-801 as radioligand
value.kind: IC50

Data request, read-out IC50, for Cc1o[nH]c(=O)c1C(N)C(=O)O (stereo unspecified)
> 100 µM

---

# test.system: Metabotropic glutamate receptor 1 (Homo sapiens)
# Sequence (Q13255 whole entry): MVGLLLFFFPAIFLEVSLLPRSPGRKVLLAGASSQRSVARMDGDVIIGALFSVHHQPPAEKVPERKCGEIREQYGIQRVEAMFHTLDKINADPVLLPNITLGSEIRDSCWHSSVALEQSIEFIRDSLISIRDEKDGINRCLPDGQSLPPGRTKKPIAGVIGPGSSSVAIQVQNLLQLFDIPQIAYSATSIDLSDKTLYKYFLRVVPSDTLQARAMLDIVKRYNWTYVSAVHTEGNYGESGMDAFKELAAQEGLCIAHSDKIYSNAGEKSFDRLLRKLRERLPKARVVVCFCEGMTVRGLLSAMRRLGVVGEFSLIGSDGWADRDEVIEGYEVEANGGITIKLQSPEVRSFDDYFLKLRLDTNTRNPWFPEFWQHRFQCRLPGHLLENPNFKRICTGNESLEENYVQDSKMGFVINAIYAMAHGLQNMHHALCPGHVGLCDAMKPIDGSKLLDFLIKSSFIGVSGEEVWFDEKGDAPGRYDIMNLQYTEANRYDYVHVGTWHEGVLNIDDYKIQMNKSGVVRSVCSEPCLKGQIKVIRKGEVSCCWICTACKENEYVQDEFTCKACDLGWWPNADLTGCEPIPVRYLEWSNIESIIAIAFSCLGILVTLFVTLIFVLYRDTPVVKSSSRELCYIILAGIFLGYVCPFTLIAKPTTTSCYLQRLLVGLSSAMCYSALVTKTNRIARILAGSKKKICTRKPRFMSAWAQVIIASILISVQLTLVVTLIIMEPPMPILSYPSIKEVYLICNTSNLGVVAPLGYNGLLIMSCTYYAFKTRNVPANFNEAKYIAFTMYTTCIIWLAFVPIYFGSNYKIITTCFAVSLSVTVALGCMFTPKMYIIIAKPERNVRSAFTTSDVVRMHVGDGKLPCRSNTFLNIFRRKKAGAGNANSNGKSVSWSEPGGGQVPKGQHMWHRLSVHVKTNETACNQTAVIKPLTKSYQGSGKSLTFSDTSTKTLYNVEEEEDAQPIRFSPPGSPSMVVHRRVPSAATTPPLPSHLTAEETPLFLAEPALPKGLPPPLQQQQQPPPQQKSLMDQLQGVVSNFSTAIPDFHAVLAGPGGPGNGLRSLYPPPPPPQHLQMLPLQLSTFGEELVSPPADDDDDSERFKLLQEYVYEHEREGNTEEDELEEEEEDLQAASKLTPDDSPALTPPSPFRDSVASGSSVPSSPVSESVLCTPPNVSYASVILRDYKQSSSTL
# protocol: Agonist activity of the compound at Metabotropic Excitatory Amino acid Receptors Expressed in CHO cells. mGlu1-alpha
# Type: functional, cell-based
value.kind: EC50

What EC50 appears in the records for this compound with Metabotropic glutamate receptor 1 (Homo sapiens)? Cc1onc(O)c1C[C@H](N)C(=O)O [(S)-AMPA]
> 1 mM

Item: Cc1onc(O)c1C[C@@H](N)C(=O)O
> 1 mM

Same for Cc1o[nH]c(=O)c1C(N)C(=O)O (stereo not drawn)
> 1 mM

---

# test.system: Metabotropic glutamate receptor 6 (Homo sapiens, UniProt O15303)
# Sequence (O15303 whole entry): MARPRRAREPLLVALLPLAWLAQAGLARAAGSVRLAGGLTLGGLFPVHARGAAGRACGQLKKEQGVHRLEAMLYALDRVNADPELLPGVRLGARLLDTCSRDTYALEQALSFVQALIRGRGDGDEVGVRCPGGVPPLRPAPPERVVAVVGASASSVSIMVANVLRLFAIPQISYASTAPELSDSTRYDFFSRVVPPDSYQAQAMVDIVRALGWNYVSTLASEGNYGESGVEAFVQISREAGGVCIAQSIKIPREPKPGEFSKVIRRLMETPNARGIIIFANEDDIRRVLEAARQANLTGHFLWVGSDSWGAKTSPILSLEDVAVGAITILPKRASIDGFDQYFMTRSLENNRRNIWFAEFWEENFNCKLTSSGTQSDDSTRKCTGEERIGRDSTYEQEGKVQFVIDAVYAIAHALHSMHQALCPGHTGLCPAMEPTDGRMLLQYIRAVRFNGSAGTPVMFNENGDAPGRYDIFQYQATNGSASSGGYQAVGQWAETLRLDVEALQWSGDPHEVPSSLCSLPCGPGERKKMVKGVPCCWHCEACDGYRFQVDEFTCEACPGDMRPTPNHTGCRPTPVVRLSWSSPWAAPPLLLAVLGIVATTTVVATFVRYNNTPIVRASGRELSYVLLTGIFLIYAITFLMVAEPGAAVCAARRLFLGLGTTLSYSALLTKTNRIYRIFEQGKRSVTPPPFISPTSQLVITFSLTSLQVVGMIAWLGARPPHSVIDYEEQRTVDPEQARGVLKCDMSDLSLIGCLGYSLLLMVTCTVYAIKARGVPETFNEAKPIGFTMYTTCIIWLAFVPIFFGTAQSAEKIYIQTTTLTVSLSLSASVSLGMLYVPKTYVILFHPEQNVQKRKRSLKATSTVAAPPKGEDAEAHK
# protocol: Agonistic activity at mGlu6 receptor expressed in CHO cells
# Type: functional, cell-based
pEC50: −log10 of the molar value.
value.kind: pEC50

What value of measured pEC50 is listed for N[C@@H](CC(=O)O)C(=O)O ?
< 3.00

What about this molecule? N[C@H](CC(=O)O)C(=O)O [D-ASPARTATE]
< 3.00

Let us now turn to Cc1onc(O)c1CCCC(N)C(=O)O (centres undefined)
3.39

// repeat for N[C@@H](CCCC(=O)O)C(=O)O [(S)-2-AMINOADIPIC ACID] and report
3.85

Record: NC(CCCCC(=O)O)C(=O)O (centres undefined)
< 3.00

Another: NC(CCCCCC(=O)O)C(=O)O (centres undefined)
< 3.00

How about N[C@H](CCCC(=O)O)C(=O)O ?
< 3.00

Field entry: Cc1o[nH]c(=O)c1CCCCC(N)C(=O)O (centres undefined)
< 3.00

Would you kindly repeat that for Cc1onc(O)c1CCC(N)C(=O)O (centres undefined) ?
4.09

---

# test.system: UniProtKB Q14833
# protocol: Agonistic activity at mGlu4a receptor expressed in CHO cells
# Type: functional, cell-based
pEC50: −log10 of the molar value.
value.kind: pEC50

Param readout= pEC50; system= UniProtKB Q14833; entry= N[C@@H](CCCC(=O)O)C(=O)O [(S)-2-AMINOADIPIC ACID] ; returns value.
< 2.52

Same question, Cc1onc(O)c1CCCC(N)C(=O)O (stereo not drawn) this time
< 2.52

One more molecule: Cc1onc(O)c1CCC(N)C(=O)O (stereo not drawn)
< 2.52

---

# test.system: Glutamate receptor ionotropic, AMPA (Rattus norvegicus, UniProt P19490+P19491+P19492+P19493)
# protocol: Agonistic activity at Ionotropic glutamate receptor AMPA of rat brain membrane using [3H]AMPA as radioligand
value.kind: IC50

Name the reported IC50 value associated with the compound Cc1o[nH]c(=O)c1C(N)C(=O)O (stereo unspecified)
> 100 µM

---

# test.system: Glutamate receptor ionotropic, kainate
# protocol: The compound was evaluated for agonist to competitive inhibition of radioligand ([3H]- kainic acid ) at Ionotropic glutamate receptor kainate
value.kind: IC50

Given Cc1o[nH]c(=O)c1C(N)C(=O)O (stereo unspecified) , state its recorded IC50.
> 100 µM

---

# test.system: UniProtKB Q14416
# Sequence (Q14416 whole entry): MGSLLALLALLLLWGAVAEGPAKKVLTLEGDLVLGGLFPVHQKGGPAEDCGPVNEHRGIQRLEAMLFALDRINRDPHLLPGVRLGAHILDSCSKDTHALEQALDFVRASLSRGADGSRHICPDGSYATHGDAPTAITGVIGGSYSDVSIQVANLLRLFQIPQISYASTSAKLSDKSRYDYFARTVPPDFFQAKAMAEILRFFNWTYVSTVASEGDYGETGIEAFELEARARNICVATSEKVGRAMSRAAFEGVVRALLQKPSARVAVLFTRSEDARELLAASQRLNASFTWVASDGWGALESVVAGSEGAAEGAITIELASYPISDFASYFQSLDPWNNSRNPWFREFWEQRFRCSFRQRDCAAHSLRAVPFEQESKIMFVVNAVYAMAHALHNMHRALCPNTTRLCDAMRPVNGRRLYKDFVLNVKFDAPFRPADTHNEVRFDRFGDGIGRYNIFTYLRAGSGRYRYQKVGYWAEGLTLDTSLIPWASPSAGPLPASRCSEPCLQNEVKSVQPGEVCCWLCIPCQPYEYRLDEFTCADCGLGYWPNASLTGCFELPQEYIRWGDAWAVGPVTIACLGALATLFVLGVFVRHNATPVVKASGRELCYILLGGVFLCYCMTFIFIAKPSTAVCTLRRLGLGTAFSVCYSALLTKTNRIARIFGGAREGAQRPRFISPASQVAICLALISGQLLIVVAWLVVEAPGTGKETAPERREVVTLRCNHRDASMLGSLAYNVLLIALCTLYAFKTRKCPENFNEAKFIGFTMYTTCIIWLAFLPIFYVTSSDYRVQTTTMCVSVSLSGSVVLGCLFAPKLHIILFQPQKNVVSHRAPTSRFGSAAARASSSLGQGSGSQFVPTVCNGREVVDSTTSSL
# protocol: Agonist activity of the compound at Metabotropic Excitatory Amino acid Receptors Expressed in CHO cells. mGlu2
# Type: functional, cell-based
value.kind: EC50

Quick check: EC50 of Cc1onc(O)c1C[C@H](N)C(=O)O [(S)-AMPA] ?
> 1000 µM

Also, Cc1onc(O)c1C[C@@H](N)C(=O)O please.
> 1000 µM
